target: T1, human Siglec15-Fc protein (human); test: competitive ELISA: biotin-labeled human Siglec15-Fc in solution, competitor coated benchmark
T1 construct: In house made; also called recombinant human Siglec15 protein with human IgG1 Fc at the C-terminus
T1 sequence (chain, as listed by the source limits assumed): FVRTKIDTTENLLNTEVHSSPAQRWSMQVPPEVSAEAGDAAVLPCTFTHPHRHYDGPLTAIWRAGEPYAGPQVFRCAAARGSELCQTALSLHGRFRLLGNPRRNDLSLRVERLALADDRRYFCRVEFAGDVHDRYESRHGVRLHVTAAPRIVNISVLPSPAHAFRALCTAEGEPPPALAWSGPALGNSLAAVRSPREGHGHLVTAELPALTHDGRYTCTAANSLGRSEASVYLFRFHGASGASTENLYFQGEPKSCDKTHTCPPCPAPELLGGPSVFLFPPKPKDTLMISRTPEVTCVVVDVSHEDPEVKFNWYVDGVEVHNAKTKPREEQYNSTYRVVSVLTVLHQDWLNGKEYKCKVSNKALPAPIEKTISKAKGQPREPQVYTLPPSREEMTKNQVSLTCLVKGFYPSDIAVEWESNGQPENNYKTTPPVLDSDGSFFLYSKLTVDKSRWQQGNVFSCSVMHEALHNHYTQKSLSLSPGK
Readout kind: pIC50
Entry type: numeric. Quantity: pIC50, the -log10 of concentration in molar units.

Prompt: Param item = anti-Siglec15 benchmark (ch5G12) (antibody, human IgG1, kappa, V domains shown, ch5G12 (US 20190202912A1); also called BM; Siglec15-ch5G9) VH: QVQLQQPGAELVKPGASVKMSCKASGYTFTSYWITWVIQRPGQGLEWIGDIYCGSDTMHYNEKFKNKATLTVDTSSSTAYMQLSSLTSEDSAVYYCARWWDYGSSYDYFDYWGQGTTLTVSS VL: DIKMTQSPSSMYASLGERVTITCKASQDINSYLSWFQQKPGKSPKTLIYRANRLVDGVPSRFSGSGSGQDYSLTISSLEYEDMGIYYCLQYDEFPYTFGGGTKLEIKR ; retrieve measured pIC50.
Response: 9.64

meta.source: patent US20230106715A1
